# Assay Target: Glycogen synthase kinase-3 beta (Homo sapiens) (UniProt P49841)
# Sequence (P49841 whole entry, looked up): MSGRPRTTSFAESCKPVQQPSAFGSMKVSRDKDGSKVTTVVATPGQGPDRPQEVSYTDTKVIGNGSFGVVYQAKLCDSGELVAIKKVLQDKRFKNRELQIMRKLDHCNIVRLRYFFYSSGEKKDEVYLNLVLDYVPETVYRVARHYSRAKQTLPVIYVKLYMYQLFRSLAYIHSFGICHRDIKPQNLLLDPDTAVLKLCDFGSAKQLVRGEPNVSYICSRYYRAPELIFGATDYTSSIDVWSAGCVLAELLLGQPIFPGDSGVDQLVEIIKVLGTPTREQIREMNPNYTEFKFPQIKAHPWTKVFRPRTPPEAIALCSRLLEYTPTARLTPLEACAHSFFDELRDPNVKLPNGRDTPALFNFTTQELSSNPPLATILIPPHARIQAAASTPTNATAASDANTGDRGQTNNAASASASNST
# Measurement Setup: Compound concentration 20.0 uM, Protein concentration 2.0 uM, Result type QC Liability
# Description: Thermal Shift Assay. Domain: start/stop: M26-R383
For each entry below, report its ΔTm value.
Just the number in °C, nothing appended.

Query: Any idea what its ΔTm is? The compound is N[C@H](C(=O)O)[C@@H]1CC(Cl)=NO1
Reply: 0.23

Query: Lookup C[C@H](CCC(=O)O)[C@H]1CC[C@H]2[C@@H]3[C@@H](O)C[C@@H]4C[C@H](O)CC[C@]4(C)[C@H]3CC[C@]12C
Reply: -0.56

Query: Lookup CCN1C(=O)C(c2cccc(C(=O)O)c2)C(=O)N(c2ccccc2)c2cc(C(F)(F)F)ccc21 (centres undefined)
Reply: -1.43

Query: Lookup CO[C@H](C)CN1CC[C@]2(C)c3cccc(O)c3C[C@H]1C2(C)C
Reply: -0.29

Query: Lookup CS(=O)(=O)c1ccc(-c2cnc(N)c(C(=O)Nc3ccccc3)n2)cc1
Reply: 3.54

Query: Lookup C[C@H](CCC(=O)O)[C@H]1CC[C@H]2[C@@H]3CC[C@@H]4C[C@H](O)CC[C@]4(C)[C@H]3CC[C@]12C
Reply: -3.06

Query: Lookup O=C(NCCN1CCC2(CC1)C(=O)NCN2c1cccc(F)c1)c1ccc2ccccc2c1
Reply: -0.14

Query: Lookup C=CC(=O)Nc1ccc2[nH]c(=O)n(C3CCN(Cc4ccc(-c5ccc6c(c5)NC(=O)CO6)cc4)CC3)c2c1
Reply: 3.14

Query: Lookup C[C@@H](CO)CCC[C@@H](C)[C@H]1CC[C@H]2[C@@H]3CC=C4C[C@@H](O)CC[C@]4(C)[C@H]3CC[C@]12C
Reply: -0.96

----------
For each entry below, report its ΔTm value.
# Assay Target: Transcription intermediary factor 1-alpha (Homo sapiens) (UniProt O15164)
# Sequence (O15164 whole entry): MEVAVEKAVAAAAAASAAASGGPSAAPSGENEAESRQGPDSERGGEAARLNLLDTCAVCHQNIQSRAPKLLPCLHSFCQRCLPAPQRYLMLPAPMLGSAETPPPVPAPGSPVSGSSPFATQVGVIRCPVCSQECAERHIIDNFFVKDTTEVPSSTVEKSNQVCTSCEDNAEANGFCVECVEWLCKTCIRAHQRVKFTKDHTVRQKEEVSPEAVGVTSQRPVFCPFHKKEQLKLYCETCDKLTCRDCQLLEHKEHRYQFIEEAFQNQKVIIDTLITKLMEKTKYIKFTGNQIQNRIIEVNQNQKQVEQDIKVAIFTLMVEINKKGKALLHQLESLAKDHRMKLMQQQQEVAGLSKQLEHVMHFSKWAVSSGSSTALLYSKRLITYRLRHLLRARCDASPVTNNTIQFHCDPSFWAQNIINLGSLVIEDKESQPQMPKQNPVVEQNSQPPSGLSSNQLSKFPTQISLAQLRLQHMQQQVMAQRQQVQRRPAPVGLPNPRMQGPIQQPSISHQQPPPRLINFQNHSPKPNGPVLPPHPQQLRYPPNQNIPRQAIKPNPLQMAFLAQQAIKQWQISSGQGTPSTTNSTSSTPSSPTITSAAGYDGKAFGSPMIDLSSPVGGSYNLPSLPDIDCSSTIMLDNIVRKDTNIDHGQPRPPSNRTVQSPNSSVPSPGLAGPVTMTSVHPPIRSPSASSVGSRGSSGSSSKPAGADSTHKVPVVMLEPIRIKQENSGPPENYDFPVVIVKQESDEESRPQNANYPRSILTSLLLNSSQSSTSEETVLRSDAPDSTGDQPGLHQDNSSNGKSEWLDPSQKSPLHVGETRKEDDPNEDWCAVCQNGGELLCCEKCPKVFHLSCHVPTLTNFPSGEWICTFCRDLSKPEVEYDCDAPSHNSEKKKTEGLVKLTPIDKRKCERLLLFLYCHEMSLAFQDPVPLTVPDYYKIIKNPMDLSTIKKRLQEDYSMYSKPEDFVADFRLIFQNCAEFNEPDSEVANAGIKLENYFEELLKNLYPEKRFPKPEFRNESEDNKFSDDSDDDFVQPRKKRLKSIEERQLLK
# Measurement Setup: Compound concentration 20.0 uM, Protein concentration 2.0 uM, Result type QC Liability
Just the number in °C, nothing appended.

Query: Any idea what its ΔTm is? The molecule is CNc1nc(-c2cc(C(=O)N3CCN(Cc4ccc(Cl)cc4)CC3)c(Cl)cn2)cs1
Reply: 0.39

Query: Lookup C[C@H](CCC(=O)O)[C@H]1CC[C@H]2[C@@H]3[C@@H](O)C[C@@H]4C[C@H](O)CC[C@]4(C)[C@H]3CC[C@]12C
Reply: -2.12

Query: Lookup Cc1nnc2n1-c1sc3c(c1C(c1ccccc1Cl)=NC2)C[C@@H](C(=O)N1CCOCC1)C3
Reply: -0.75

Query: Lookup COc1ccc(-n2nc(C(F)(F)F)cc2-c2ccc(Cl)cc2)cc1
Reply: -0.34

Query: Lookup CO[C@H](C)CN1CC[C@@]2(C)c3ccc(O)cc3C[C@@H]1C2(C)C
Reply: 0.33

Query: Lookup C[C@@H]1CC[C@@]2(OC1)O[C@H]1[C@@H](O)[C@H]3[C@@H]4CC[C@H]5C[C@@H](O[C@@H]6O[C@H](CO)[C@H](O[C@@H]7O[C@H](CO)C(O)[C@H](O[C@@H]8OC[C@@H](O)[C@H](O)[C@H]8O)[C@H]7O[C@@H]7O[C@H](CO)[C@H](O)[C@H](O[C@@H]8O[C@H](CO)[C@@H](O)[C@H](O)[C@H]8O)[C@H]7O)[C@H](O)[C@H]6O)[C@H](O)C[C@]5(C)[C@H]4CC[C@]3(C)[C@H]1[C@@H]2C (stereo partly drawn)
Reply: -3.45

Query: Lookup Cn1ncc(-c2nc(N[C@H]3CC[C@H](N)CC3)ncc2Cl)c1CC1CC1
Reply: -3.6

Query: Lookup OCC1OC(n2cnc3cc(Cl)c(Cl)cc32)C(O)C1O (stereo not drawn)
Reply: -1.91

----------
# Assay Target: Transcription intermediary factor 1-alpha (Homo sapiens) (UniProt O15164)
# Measurement Setup: Compound concentration 20.0 uM, Protein concentration 2.0 uM, Result type QC Liability
Measurement Label: ΔTm (°C)
Just the number in °C, nothing appended.

Query: Any idea what its ΔTm is? The compound is CN1CCN(C(=O)Cc2ccc(N/C(=C3\C(=O)Nc4cc(Cl)ccc43)c3ccccc3)cc2)CC1
Reply: -2.36

Query: Lookup C=CC(=O)Nc1cc(-c2nn(C3CCC(N4CCN(C(C)=O)CC4)CC3)c3ncnc(N)c23)ccc1Oc1ccccc1 (stereo not drawn)
Reply: -1.68

Query: Lookup Cc1nnc2n1-c1sc3c(c1C(c1ccccc1Cl)=NC2)CC(C(=O)N1CCOCC1)C3 (stereo not drawn)
Reply: 0.23

Query: Lookup Cc1nnc2n1-c1sc3c(c1C(c1ccccc1Cl)=NC2)C[C@H](C(=O)N1CCOCC1)C3
Reply: -0.99

Query: Lookup CS(=O)(=O)c1ccc(-c2cnc(N)c(C(=O)Nc3ccccc3)n2)cc1
Reply: -1.74

Query: Lookup Cc1nnc2n1-c1sc(CCC(=O)N3CCOCC3)cc1C(c1ccccc1Cl)=NC2
Reply: 0.29

Query: Lookup Clc1ccccc1C(c1ccccc1)(c1ccccc1)n1cccn1
Reply: -0.54

Query: Lookup CCCn1cc(-c2cc(C3C(=O)N(CC)c4ccc(C(F)(F)F)cc4N(c4ccccc4)C3=O)cc(OC)c2O)cn1 (stereo not drawn)
Reply: 0.28

Query: Lookup C=CC(=O)Nc1ccc2[nH]c(=O)n(C3CCN(Cc4ccc(-c5ccc6c(c5)NC(=O)CO6)cc4)CC3)c2c1
Reply: -2.17

Query: Lookup O=C1CCC(N2Cc3cc(CNC(=O)C(F)(F)c4ccc(Cl)cc4)ccc3C2=O)C(=O)N1 (stereo not drawn)
Reply: -0.96

Query: Lookup Cc1ccc2c(N)c(C(=O)NC3CCc4cc(N5CC6CCC(C5)N6)ccc4C3)sc2n1 (stereo not drawn)
Reply: -1.89

Query: Lookup C=CC(=O)N1CCC[C@@H](n2nc(-c3ccc(Oc4ccccc4)cc3)c3c(N)ncnc32)C1
Reply: -4.01

Query: Lookup C=C[C@@]12CCc3cc(O)ccc3[C@H]1CC[C@@]1(C)[C@H]2CC[C@@H]1O
Reply: -0.42

Query: Lookup N[C@H](C(=O)O)[C@@H]1CC(Cl)=NO1
Reply: -0.82

Query: Lookup CCN1C(=O)C(c2cccc(C(=O)O)c2)C(=O)N(c2ccccc2)c2cc(C(F)(F)F)ccc21 (stereo not drawn)
Reply: 0.23

Query: Lookup C[C@@H](CN1CC[C@@]2(C)c3cccc(O)c3C[C@@H]1C2(C)C)OCc1ccccc1
Reply: 0.17

Query: Lookup COc1nc2ccc([C@@](O)(c3ccc(Cl)cc3)c3cncn3C)cc2c(Cl)c1Cc1ccc(-n2cccn2)cc1
Reply: -0.54

Query: Lookup CCOP(=O)(OCC)C(=Cc1cc(C(C)(C)C)c(O)c(C(C)(C)C)c1)P(=O)(OCC)OCC
Reply: -3.9

----------
# Assay Target: Glycogen synthase kinase-3 beta (Homo sapiens) (UniProt P49841)
# Measurement Setup: Compound concentration 20.0 uM, Protein concentration 2.0 uM, Result type QC Liability
For each entry below, report its ΔTm value.
Just the number in °C, nothing appended.

Query: Any idea what its ΔTm is? The molecule is Cc1cc(Cl)ccc1S(=O)(=O)NC[C@H]1C2CCC(CC2)[C@@H]1/C=C\CCCC(=O)O
Reply: -1.54

Query: Lookup CCCn1cc(-c2cc(C3C(=O)N(CC)c4ccc(C(F)(F)F)cc4N(c4ccccc4)C3=O)cc(OC)c2O)cn1 (stereo not given)
Reply: -1.32

Query: Lookup Clc1ccccc1C(c1ccccc1)(c1ccccc1)n1cccn1
Reply: -0.43

Query: Lookup COc1ccc(OC(=O)N(CC(=O)O)Cc2ccc(OCCc3nc(-c4ccccc4)oc3C)cc2)cc1
Reply: -1.96

Query: Lookup CNC(=O)c1cc(C(=O)NC2CC2)cn(Cc2ccccc2)c1=O
Reply: -0.41

----------
# Assay Target: Casein kinase I isoform delta (Homo sapiens)
# Measurement Setup: Compound concentration 20.0 uM, Protein concentration 2.0 uM, Result type QC Liability
# Description: Thermal Shift Assay. Domain: start/stop: M1-K294
For each entry below, report its ΔTm value.
Just the number in °C, nothing appended.

Query: Any idea what its ΔTm is? The molecule is C[C@@H](CO)CCC[C@@H](C)[C@H]1CC[C@H]2[C@@H]3CC=C4C[C@@H](O)CC[C@]4(C)[C@H]3CC[C@]12C
Reply: 0.59

Query: Lookup CNc1nc(-c2cc(C(=O)N3CCN(Cc4ccc(Cl)cc4)CC3)c(Cl)cn2)cs1
Reply: 0.17

Query: Lookup Cc1cc(Cl)ccc1S(=O)(=O)NC[C@H]1C2CCC(CC2)[C@@H]1/C=C\CCCC(=O)O
Reply: -0.27

Query: Lookup Cc1nnc2n1-c1sc3c(c1C(c1ccccc1Cl)=NC2)C[C@H](C(=O)N1CCOCC1)C3
Reply: 0.25

Query: Lookup C[C@H](CCC(=O)O)[C@H]1CC[C@H]2[C@@H]3CC[C@@H]4C[C@H](O)CC[C@]4(C)[C@H]3CC[C@]12C
Reply: -3.52

Query: Lookup N[C@H](C(=O)O)[C@@H]1CC(Cl)=NO1
Reply: 0.22

Query: Lookup O=C(NCCN1CCC2(CC1)C(=O)NCN2c1cccc(F)c1)c1ccc2ccccc2c1
Reply: 0.58

Query: Lookup CCOP(=O)(OCC)C(=Cc1cc(C(C)(C)C)c(O)c(C(C)(C)C)c1)P(=O)(OCC)OCC
Reply: 0.17
